Target: Peroxisome proliferator-activated receptor delta (Mus musculus)
Sequence (P35396 whole entry): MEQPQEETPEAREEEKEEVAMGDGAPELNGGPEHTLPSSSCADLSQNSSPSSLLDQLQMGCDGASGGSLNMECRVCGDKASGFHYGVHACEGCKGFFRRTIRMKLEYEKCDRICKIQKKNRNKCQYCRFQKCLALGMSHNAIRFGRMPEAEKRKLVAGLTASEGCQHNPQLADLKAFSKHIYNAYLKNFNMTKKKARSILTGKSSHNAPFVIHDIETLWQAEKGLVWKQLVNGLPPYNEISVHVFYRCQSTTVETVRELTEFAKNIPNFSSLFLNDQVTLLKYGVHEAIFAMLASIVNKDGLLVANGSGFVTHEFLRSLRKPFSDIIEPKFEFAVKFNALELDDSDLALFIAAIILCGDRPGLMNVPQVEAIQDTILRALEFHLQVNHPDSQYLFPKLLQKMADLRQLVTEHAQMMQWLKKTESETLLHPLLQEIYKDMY
Test: Agonist activity at mouse PPARdelta in Cos7 cells transfected with pBIND and pGL4.35 Gal4 UAS Luc reporter plasmid by measuring luciferase activity incubated for 16 hrs by luciferase reporter gene assay

>  <Structure smiles string>
Cc1cc(Cn2ncn(-c3ccc(OC(F)(F)F)cc3)c2=O)cc(C)c1OC(C)(C)C(=O)O

>  <Target under test>
Peroxisome proliferator-activated receptor delta (Mus musculus)

>  <Value units>
nM

>  <EC50>
19.7

$$$$

====

target: Peroxisome proliferator-activated receptor gamma (Mus musculus, UniProt P37238); test: Agonist activity at mouse PPARgamma in Cos7 cells transfected with pBIND and pGL4.35 Gal4 UAS Luc reporter plasmid by measuring luciferase activity incubated for 16 hrs by luciferase reporter gene assay
Sequence (P37238 whole entry, the tested form may be a part): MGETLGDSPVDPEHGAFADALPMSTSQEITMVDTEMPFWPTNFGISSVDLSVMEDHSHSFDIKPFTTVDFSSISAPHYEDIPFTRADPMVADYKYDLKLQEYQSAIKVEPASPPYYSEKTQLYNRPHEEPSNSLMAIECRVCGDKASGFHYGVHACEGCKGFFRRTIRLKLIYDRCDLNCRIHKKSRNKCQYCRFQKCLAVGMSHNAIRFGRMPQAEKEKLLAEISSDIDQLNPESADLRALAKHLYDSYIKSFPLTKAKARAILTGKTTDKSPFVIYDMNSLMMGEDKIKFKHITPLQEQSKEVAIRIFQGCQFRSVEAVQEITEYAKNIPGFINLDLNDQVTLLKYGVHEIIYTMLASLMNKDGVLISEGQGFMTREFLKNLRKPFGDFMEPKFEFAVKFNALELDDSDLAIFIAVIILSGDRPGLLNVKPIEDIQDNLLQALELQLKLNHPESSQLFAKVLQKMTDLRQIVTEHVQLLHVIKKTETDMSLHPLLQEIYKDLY
pEC50: −log10 of the molar value.
Value kind: pEC50

>  <Structure smiles string>
Cc1cc(Cn2ncn(-c3ccc(OC(F)(F)F)cc3)c2=O)cc(C)c1OC(C)(C)C(=O)O

>  <Target under test>
Peroxisome proliferator-activated receptor gamma (Mus musculus, UniProt P37238)

>  <Result>
5.99

$$$$

====

assay: Intrinsic clearance in human liver microsomes at 1 uM measured upto 60 mins by LC-MS/MS-11 analysis; type: ADME, Microsome; settings: read-out: CLH
Value kind: CLint scaled at 1 µM (mL/min/kg)

>  <Structure smiles string>
Cc1cc(Cn2ncn(-c3ccc(OC(F)(F)F)cc3)c2=O)cc(C(F)(F)F)c1OC(C)(C)C(=O)O

>  <Value units>
mL/min/kg

>  <Result>
0.09

$$$$
>  <Structure smiles string>
Cc1cc(Cn2ncn(-c3ccc(C(F)(F)F)cc3)c2=O)cc(C(F)(F)F)c1OC(C)(C)C(=O)O

>  <Value units>
mL/min/kg

>  <Result>
2.7

$$$$
>  <Structure smiles string>
Cc1cc(Cn2ncn(-c3ccc(Br)cc3)c2=O)cc(C)c1OC(C)(C)C(=O)O

>  <Value units>
mL/min/kg

>  <Result>
1.45

$$$$
>  <Structure smiles string>
CC(C)(Oc1c(Cl)cc(Cn2ncn(-c3ccc(C(F)(F)F)cc3)c2=O)cc1Cl)C(=O)O

>  <Value units>
mL/min/kg

>  <Result>
10.3

$$$$
>  <Structure smiles string>
Cc1cc(Cn2ncn(-c3ccc(C(F)(F)F)cc3)c2=O)cc(Cl)c1OC(C)(C)C(=O)O

>  <Value units>
mL/min/kg

>  <Result>
3.96

$$$$
>  <Structure smiles string>
CCc1ccc(-n2cnn(Cc3cc(C)c(OC(C)(C)C(=O)O)c(C)c3)c2=O)cc1

>  <Value units>
mL/min/kg

>  <Result>
4.68

$$$$
>  <Structure smiles string>
CSc1ccc(C(=O)/C=C/c2cc(C)c(OC(C)(C)C(=O)O)c(C)c2)cc1

>  <Value units>
mL/min/kg

>  <Result>
116

$$$$
>  <Structure smiles string>
Cc1cc(Cn2ncn(-c3ccc(C(F)(F)F)cc3)c2=O)cc(C)c1OC(C)(C)C(=O)O

>  <Value units>
mL/min/kg

>  <Result>
3.6

$$$$

====

target: Peroxisome proliferator-activated receptor alpha (Homo sapiens); test: Agonist activity at PPARalpha (unknown origin)
# EC50 values compiled below
Value kind: EC50

>  <Molecule>
Cc1cc(Cn2ncn(-c3ccc(OC(F)(F)F)cc3)c2=O)cc(Cl)c1OC(C)(C)C(=O)O

>  <Value kind>
EC50

>  <Result>
7.6 nM

$$$$
>  <Molecule>
CCc1cc(Cn2ncn(-c3ccc(OC(F)(F)F)cc3)c2=O)cc(CC)c1OC(C)(C)C(=O)O

>  <Value kind>
EC50

>  <Result>
44.4 nM

$$$$
>  <Molecule>
Cc1cc(Cn2ncn(-c3ccc(C(F)(F)F)cc3)c2=O)cc(Cl)c1OC(C)(C)C(=O)O

>  <Value kind>
EC50

>  <Result>
8.6 nM

$$$$
>  <Molecule>
CC(C)(Oc1c(Cl)cc(Cn2ncn(-c3ccc(OC(F)(F)F)cc3)c2=O)cc1Cl)C(=O)O

>  <Value kind>
EC50

>  <Result>
6.8 nM

$$$$
>  <Molecule>
Cc1cc(Cc2cc(-c3ccc(Br)cc3)on2)cc(C)c1OC(C)(C)C(=O)O

>  <Value kind>
EC50

>  <Result>
65.1 nM

$$$$
>  <Molecule>
O=C(O)CCCc1cc2cc(Cl)ccc2n1S(=O)(=O)c1ccc2ncsc2c1 [LANIFIBRANOR]

>  <Value kind>
EC50

>  <Result>
3060 nM

$$$$
>  <Molecule>
CCOc1ccc(-n2cnn(Cc3cc(C)c(OC(C)(C)C(=O)O)c(C)c3)c2=O)cc1

>  <Value kind>
EC50

>  <Result>
32.6 nM

$$$$
>  <Molecule>
Cc1cc(Cn2ncn(-c3ccc(C(C)C)cc3)c2=O)cc(C)c1OC(C)(C)C(=O)O

>  <Value kind>
EC50

>  <Result>
7.5 nM

$$$$

====

biological target: Peroxisome proliferator-activated receptor alpha (Homo sapiens) (UniProt Q07869); conditions: filed as agonist, dose 10.0 nM
Sequence (Q07869 whole entry): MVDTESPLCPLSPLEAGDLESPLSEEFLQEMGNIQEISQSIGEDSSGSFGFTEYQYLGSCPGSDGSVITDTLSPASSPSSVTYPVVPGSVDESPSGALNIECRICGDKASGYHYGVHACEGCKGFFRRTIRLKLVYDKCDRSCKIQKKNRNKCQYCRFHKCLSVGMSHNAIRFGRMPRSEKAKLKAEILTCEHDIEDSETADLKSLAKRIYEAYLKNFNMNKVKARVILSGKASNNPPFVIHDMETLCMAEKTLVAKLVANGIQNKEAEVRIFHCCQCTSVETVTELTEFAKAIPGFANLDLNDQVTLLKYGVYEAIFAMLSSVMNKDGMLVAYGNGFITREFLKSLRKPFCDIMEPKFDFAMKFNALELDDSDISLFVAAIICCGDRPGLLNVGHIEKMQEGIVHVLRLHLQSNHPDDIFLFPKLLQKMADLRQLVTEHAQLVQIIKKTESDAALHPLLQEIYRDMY
Description: Agonist activity at PPARalpha (unknown origin) assessed as maximal activation at 10 nM relative to GW7647

>  <Structure smiles string>
Cc1cc(Cn2ncn(-c3ccc(C(F)(F)F)cc3)c2=O)cc(Cl)c1OC(C)(C)C(=O)O

>  <Emax, %>
162

$$$$
>  <Structure smiles string>
Cc1cc(Cn2ncn(-c3ccc(OC(F)(F)F)cc3)c2=O)cc(Cl)c1OC(C)(C)C(=O)O

>  <Emax, %>
110

$$$$
>  <Structure smiles string>
CC(C)(Oc1ccc(Cn2ncn(-c3ccc(OC(F)(F)F)cc3)c2=O)cc1OC(F)(F)F)C(=O)O

>  <Emax, %>
130

$$$$
>  <Structure smiles string>
CC(C)(Oc1ccc(Cn2ncn(-c3ccc(C(F)(F)F)cc3)c2=O)cc1Cl)C(=O)O

>  <Emax, %>
150

$$$$
>  <Structure smiles string>
CCOc1ccc(-n2cnn(Cc3cc(C)c(OC(C)(C)C(=O)O)c(C)c3)c2=O)cc1

>  <Emax, %>
79

$$$$
>  <Structure smiles string>
CCc1cc(Cn2ncn(-c3ccc(OC(F)(F)F)cc3)c2=O)cc(CC)c1OC(C)(C)C(=O)O

>  <Emax, %>
129

$$$$
>  <Structure smiles string>
COc1ccc(-n2cnn(Cc3cc(C)c(OC(C)(C)C(=O)O)c(C)c3)c2=O)cc1

>  <Emax, %>
120

$$$$
>  <Structure smiles string>
Cc1ccc(-n2cnn(Cc3cc(C)c(OC(C)(C)C(=O)O)c(C)c3)c2=O)cc1

>  <Emax, %>
114

$$$$
>  <Structure smiles string>
Cc1cc(Cn2ncn(-c3ccc(OC(F)(F)F)cc3)c2=O)ccc1OC(C)(C)C(=O)O

>  <Emax, %>
141

$$$$

====

target: Peroxisome proliferator-activated receptor alpha (Mus musculus); assay: Agonist activity at mouse PPARalpha transfected in Cos7 cells co-expressing with pBIND and pGL4.35 Gal4 UAS Luc reporter plasmid by measuring luciferase activity incubated for 16 hrs by luciferase reporter gene assay
Sequence (P23204 whole entry, the tested form may be a part): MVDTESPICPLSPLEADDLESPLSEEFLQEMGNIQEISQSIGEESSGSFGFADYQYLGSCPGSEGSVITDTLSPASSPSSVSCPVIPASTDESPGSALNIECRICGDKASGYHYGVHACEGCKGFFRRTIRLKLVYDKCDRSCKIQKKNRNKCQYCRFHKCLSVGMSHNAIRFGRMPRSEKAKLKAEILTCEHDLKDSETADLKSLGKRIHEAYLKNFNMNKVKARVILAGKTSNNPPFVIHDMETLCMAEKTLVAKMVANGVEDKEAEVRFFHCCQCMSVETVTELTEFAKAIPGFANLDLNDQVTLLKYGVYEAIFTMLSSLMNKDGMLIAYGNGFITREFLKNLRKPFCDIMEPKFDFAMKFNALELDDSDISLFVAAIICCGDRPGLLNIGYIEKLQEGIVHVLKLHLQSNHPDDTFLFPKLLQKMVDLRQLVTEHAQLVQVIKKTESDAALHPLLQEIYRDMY
pEC50: −log10 of the molar value.

>  <Structure smiles string>
Cc1cc(Cn2ncn(-c3ccc(OC(F)(F)F)cc3)c2=O)cc(C)c1OC(C)(C)C(=O)O

>  <pEC50>
7.77

$$$$

====

biological target: Peroxisome proliferator-activated receptor alpha (Homo sapiens, UniProt Q07869); assay: Agonist activity at PPARalpha (unknown origin)

>  <Structure smiles string>
CCc1cc(Cn2ncn(-c3ccc(C(F)(F)F)cc3)c2=O)cc(CC)c1OC(C)(C)C(=O)O

>  <Target under test>
Peroxisome proliferator-activated receptor alpha (Homo sapiens, UniProt Q07869)

>  <Result qualifier>
=

>  <EC50 (µM)>
0.0591

$$$$
>  <Structure smiles string>
CCc1ccc(-n2cnn(Cc3cc(C)c(OC(C)(C)C(=O)O)c(C)c3)c2=O)cc1

>  <Target under test>
Peroxisome proliferator-activated receptor alpha (Homo sapiens, UniProt Q07869)

>  <Result qualifier>
=

>  <EC50 (µM)>
0.0142

$$$$
>  <Structure smiles string>
Cc1cc(-n2ncn(-c3ccc(C(F)(F)F)cc3)c2=O)cc(C)c1OC(C)(C)C(=O)O

>  <Target under test>
Peroxisome proliferator-activated receptor alpha (Homo sapiens, UniProt Q07869)

>  <Result qualifier>
>

>  <EC50 (µM)>
5

$$$$
>  <Structure smiles string>
Cc1cc(Cn2ncn(-c3ccc(C#N)cc3)c2=O)cc(C)c1OC(C)(C)C(=O)O

>  <Target under test>
Peroxisome proliferator-activated receptor alpha (Homo sapiens, UniProt Q07869)

>  <Result qualifier>
>

>  <EC50 (µM)>
5

$$$$
>  <Structure smiles string>
Cc1cc(Cn2ncn(-c3ccccc3C(F)(F)F)c2=O)cc(C)c1OC(C)(C)C(=O)O

>  <Target under test>
Peroxisome proliferator-activated receptor alpha (Homo sapiens, UniProt Q07869)

>  <Result qualifier>
>

>  <EC50 (µM)>
5

$$$$
